Target: ceh-34 (C10G8.6) (Caenorhabditis elegans) (UniProt Q94165)
Sequence: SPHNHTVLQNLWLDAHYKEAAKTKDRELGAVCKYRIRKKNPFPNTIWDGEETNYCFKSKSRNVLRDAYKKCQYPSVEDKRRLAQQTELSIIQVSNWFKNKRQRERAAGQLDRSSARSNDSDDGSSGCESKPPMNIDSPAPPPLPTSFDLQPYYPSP
Answer each item with its documented binding signal (PBM E-score (-0.5 to 0.5)).
Answers are plain numbers.

Sample records with binding signal (PBM E-score (-0.5 to 0.5)):
{"columns": ["RESIDUE STRING", "NUMERIC RESULT"],
 "data": [
  ["ATGATACC (double strand) [8-mer ATGATACC]", 0.481],
  ["AATGATAC (double strand) [8-mer AATGATAC]", 0.461]
]}

Okay, next one:
Return reported binding signal (PBM E-score (-0.5 to 0.5)). Input sequence: ATATCCCC (double strand) [8-mer ATATCCCC]
0.474
